- system_under_test: T1, C4-aa^1355 monoclonal antibody
- T1 construct: It was SULFO-TAG labelled in the ECLIA; also called the monoclonal antibody
- assay: competitive C4-aa^1355 ECLIA (peptide in solution against the biotinylated coating peptide)

{"binder": "FMGNTGPTGAV [Elongated peptide FMGNTGPTGAV]", "binding result": "no binding"}
{"binder": "GNTGPTGAV [Truncated peptide GNTGPTGAV]", "binding result": "no binding"}
{"binder": "LLARDFEKNY [Non-sense selection peptide LLARDFEKNY]", "binding result": "no binding"}
